System: MRC-5 cell line
Assay: Cell viability assay for MRC-5 cell line (EZ-Cytox)
Type: cell-based
Conditions: Homo sapiens, MRC5, 120 h; MRC-5 normal cell line, 5 days, 10000 nM to 1.52 nM; read-out: Activity: IC50 value, cell viability, MRC-5 cell line (Exemplary Compounds)
pIC50: −log10 of the molar value.
Quantity: pIC50

COc1cc(C(=O)NC2CCC(N(C)CC3CCN(c4ccc(NC5CCC(=O)NC5=O)cc4F)CC3)CC2)ccc1Nc1ncc2c(n1)N(C(C)C)CC(F)(F)C(=O)N2C (stereo not shown) = < 5.00
COc1cc(C(=O)NC2CC3(CCN(CC4CCN(c5ccc(NC6CCC(=O)NC6=O)c(F)c5)CC4)CC3)C2)ccc1Nc1ncc2c(n1)N(C1CCCC1)CC(F)(F)C(=O)N2C (stereo not shown) = < 5.00
COc1cc(C(=O)NN2CCC(CCN3CCN(c4cc(C#N)c(NC5CCC(=O)NC5=O)cc4F)CC3)CC2)ccc1Nc1ncc2c(n1)N(C1CCCC1)CC(F)(F)C(=O)N2C (stereo not shown) = < 5.00
COc1cc(C(=O)NN2C[C@@H]3[C@@H](CCN4CCN(c5ccc(NC6CCC(=O)NC6=O)cc5)CC4)[C@@H]3C2)ccc1Nc1ncc2c(n1)N(C(C)C)CC(F)(F)C(=O)N2C (stereo partly shown) = < 5.00
COc1cc(C(=O)NN2CCC(CCN3CCN(c4ccc(NC5CCC(=O)NC5=O)nc4)CC3)CC2)ccc1Nc1ncc2c(n1)N(C1CCCC1)CC(F)(F)C(=O)N2C (stereo not shown) = < 5.00
COc1cc(C(=O)NC2CC3(CCN(CC4CCN(c5cc(OC)c(NC6CCC(=O)NC6=O)cc5F)CC4)CC3)C2)c(F)cc1Nc1ncc2c(n1)N(C(C)C)CC(F)(F)C(=O)N2C (stereo not shown) = < 5.00
COc1cc(C(=O)NN2CCC(CCN3CCN(c4cc(F)c(NC5CCC(=O)NC5=O)cc4OC)CC3)CC2)ccc1Nc1ncc2c(n1)N(C1CCCC1)CC(F)(F)C(=O)N2C (stereo not shown) = < 5.00
COc1cc(C(=O)NC2CCN(CCC3CCN(c4cc(F)c(NC5CCC(=O)NC5=O)cc4F)CC3)CC2)ccc1Nc1ncc2c(n1)N(C1CCCC1)CC(F)(F)C(=O)N2C (stereo not shown) = < 5.00
COc1cc(C(=O)NN2CCC(CCN3CCN(c4cc(F)c(NC5CCC(=O)NC5=O)cc4F)CC3)CC2)ccc1Nc1ncc2c(n1)N(C1CCCC1)CC(F)(F)C(=O)N2C (stereo not shown) = < 5.00
COc1cc(C(=O)NC2CCN(C3CN(c4ccc(C5CCC(=O)NC5=O)cc4F)C3)CC2)ccc1Nc1ncc2c(n1)N(C(C)C)CC(F)(F)C(=O)N2C (stereo not shown) = < 5.00
